Sourced from patent US20230070752A1

- Experimental system: T1, IFNλR1 (UniProt Q8IU57 21-228, limits assumed)
- T1 construct: Soluble protein used at 500, 1000 and 2000 nM in BLI; also called IFNLR1; interferon lambda receptor 1
- T1 sequence (looked up): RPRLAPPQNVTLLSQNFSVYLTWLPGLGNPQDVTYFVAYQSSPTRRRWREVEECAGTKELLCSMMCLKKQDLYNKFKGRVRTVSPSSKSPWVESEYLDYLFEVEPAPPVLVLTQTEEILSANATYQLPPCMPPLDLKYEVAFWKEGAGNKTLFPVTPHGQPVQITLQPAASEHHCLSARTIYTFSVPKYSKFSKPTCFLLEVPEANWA
- Assay comment: BLI (BLItz), biotinylated IFNλ4 on streptavidin sensor, IFNλR1 in solution at 500-2000 nM, 1:1 global fit
Recorded endpoint: pKd
Numbers only, as −log10 of the molar value.

For orientation, consider the following solved cases.
M1 (L28N) IFNλ4 variant (ligand, N-glycan at Asn61 (L28N not glycosylated); biotinylated for BLI, Secreted from Expi293F cells as a C-terminal Protein A fusion; Protein A was removed by thrombin at an LVPRGS site; Monomer by SDS-PAGE; also called L28N (M1)) AAPRRCNLSHYRSLEPRTLAAAKALRDRYEEEALSWGQRNCSFRPRRDPPRPSSCARLRHVARGIADAQAVLSGLHRSELLPGAGPILELLAAAGRDVAACLELARPGSSRKVPGAQKRRHKPRRADSPRCRKASVVFNLLRLLTWELRLAAHSGPCL = 7.85
M3 (P73N) IFNλ4 variant (ligand, N-glycans at Asn61 and at P73N (Asn73); biotinylated for BLI, Secreted from Expi293F cells as a C-terminal Protein A fusion; Protein A was removed by thrombin at an LVPRGS site; Monomer by SDS-PAGE; also called P73N (M3)) AAPRRCLLSHYRSLEPRTLAAAKALRDRYEEEALSWGQRNCSFRPRRDPPRNSSCARLRHVARGIADAQAVLSGLHRSELLPGAGPILELLAAAGRDVAACLELARPGSSRKVPGAQKRRHKPRRADSPRCRKASVVFNLLRLLTWELRLAAHSGPCL = 7.66
M7 (L28N+P73N) IFNλ4 variant (ligand, N-glycans at Asn61 and at P73N (Asn73); L28N not glycosylated; biotinylated for BLI, Secreted from Expi293F cells as a C-terminal Protein A fusion; Protein A was removed by thrombin at an LVPRGS site; Monomer by SDS-PAGE; also called double mutant) AAPRRCNLSHYRSLEPRTLAAAKALRDRYEEEALSWGQRNCSFRPRRDPPRNSSCARLRHVARGIADAQAVLSGLHRSELLPGAGPILELLAAAGRDVAACLELARPGSSRKVPGAQKRRHKPRRADSPRCRKASVVFNLLRLLTWELRLAAHSGPCL = 7.77

From here, focus on the item given below.
The reported pKd of the binder eIFNλ4 (wild-type IFNλ4 produced in E. coli, R&D Systems 9165-IL) (ligand, not glycosylated (E. coli); biotinylated for BLI, Bought as protein and used as the wild-type control; also called eIFNL4; control wild-type IFNλ4) MAPRRCLLSHYRSLEPRTLAAAKALRDRYEEEALSWGQRNCSFRPRRDPPRPSSCARLRHVARGIADAQAVLSGLHRSELLPGAGPILELLAAAGRDVAACLELARPGSSRKVPGAQKRRHKPRRADSPRCRKASVVFNLLRLLTWELRLAAHSGPCL was 7.72
